System: HCC 2998
protocol description: NCI tumour cell line growth inhibition, 48 h
Activity calls are given as the source filed them. Cut-off read from the data, not from the text of the source: active = GI50 up to about 1.1 µM and inactive = higher.
experimental readout: GI50

Worked cases, GI50 given:
compound=CCOC(=O)N1CCNCCN(C(=O)OCC)CCNCC1 experimental_readout=GI50 endpoint_result="> 100 µM (inactive)"
compound="CC1=NN(c2ccc(S(=O)(=O)O)cc2)C2(C1)C(Cl)C(=O)N2c1nc2ccccc2s1 (centres undefined)" experimental_readout=GI50 endpoint_result="> 100 µM (inactive)"
compound="COC1Cc2c(C)c(OC(C)=O)c3cccnc3c2O1 (centres undefined)" experimental_readout=GI50 endpoint_result="> 100 µM (inactive)"
compound=Oc1ccnc(SCc2ccc(Cl)cc2)n1 experimental_readout=GI50 endpoint_result="13.4 µM (inactive)"
compound=COc1ccc(NC(=O)C(=O)NNC(=O)c2sc(NNC(C)=O)nc2C)c([N+](=O)[O-])c1 experimental_readout=GI50 endpoint_result="> 100 µM (inactive)"

Write down GI50 measured for item CC1(C)CCCCCCC2OC2CCCCCC(C)(C)C1=O (centres undefined)
40.6 µM (inactive)

Write down GI50 measured for item `O=[N+]([O-])c1cc(Cl)cc2cc(Br)cnc12`
> 31.6 µM (inactive)

Write down GI50 measured for item `CCOP(=O)(OCC)[C@H](O)c1ccsc1`
> 100 µM (inactive)

Write down GI50 measured for item `COC(=O)N/N=C(/CCC(=O)Nc1ccc(C)c(C)c1)CC(=O)C(C)(C)C`
> 100 µM (inactive)

Write down GI50 measured for item C=C[C@]1(O)CCC[C@]2(C)C(=O)CCC12C (some centres undefined)
> 100 µM (inactive)

Write down GI50 measured for item `COc1cccc(/C(CC(O)(C(F)(F)F)C(F)(F)F)=N\N(C)C)c1`
> 100 µM (inactive)
